- Test system: HCT-15
- assay-text: Potency index, ratio of etoposide IC50 to compound IC50 for human HCT15 cells
- Format: functional
Items are presented alongside their recorded Ratio IC50.
Respond numerically, and do not add a unit to the figure.

Here is how some molecules turned out for Ratio IC50.
Oc1ccc(-c2cc(-c3ccccc3Cl)cc(-c3cccc(O)c3)n2)cc1: 1.39
Oc1cccc(-c2cc(-c3ccccc3Cl)cc(-c3ccccc3O)n2)c1: 1.26
Oc1ccc(-c2cc(-c3cccc(Cl)c3)cc(-c3ccccc3O)n2)cc1: 3.17

Below: the item to evaluate.
IN: Could you share which Ratio IC50 value was measured for `Oc1cccc(-c2cc(-c3cccc(Cl)c3)cc(-c3cccc(O)c3)n2)c1` ?
OUT: 1.54
